- Test Target: Calmodulin-sensitive adenylate cyclase (Bacillus anthracis)
- Protocol Notes: Inactivation of Bacillus anthracis edema factor assessed as Kinact/Ki ratio in presence of CaM incubated for 10 to 240 mins by EnzChek pyrophosphate assay relative to FSBA
Decide by Ratio: equal to or exceeding 0.6 means true (1), less means false (0).

Example entries begin here.
Task: Quick check, Ratio >= 0.6? Nc1ncnc2c1ncn2[C@@H]1CCCN(C(=O)c2ccc(S(=O)(=O)F)cc2)C1
Output: false (0)

Task: Quick check, Ratio >= 0.6? Nc1cc(OCCNCc2ccc(S(=O)(=O)F)cc2)ccn1
Output: true (1)

Task: Quick check, Ratio >= 0.6? Nc1ncnc2c1ccn2C1CCN(C(=O)c2ccc(S(=O)(=O)F)cc2)CC1
Output: true (1)

Task: Quick check, Ratio >= 0.6? Nc1cc(O[C@@H]2CCN(C(=O)c3ccc(S(=O)(=O)F)cc3)C2)ccn1
Output: false (0)

Task: Quick check, Ratio >= 0.6? Cc1nc(N)c2cnn(CCCNC(=O)c3ccc(S(=O)(=O)F)cc3)c2n1
Output: true (1)

New cases:
Task: Quick check, Ratio >= 0.6? Cc1nc(N)c2ncn(C3CCN(Cc4ccc(S(=O)(=O)F)cc4)CC3)c2n1
Output: true (1)

Task: Quick check, Ratio >= 0.6? Cc1nc(N)c2ccn(C3CCN(C(=O)c4ccc(S(=O)(=O)F)cc4)CC3)c2n1
Output: true (1)

Task: Quick check, Ratio >= 0.6? Nc1ncnc2c1ncn2CCOC(=O)c1ccc(S(=O)(=O)F)cc1
Output: false (0)

Task: Quick check, Ratio >= 0.6? Cc1nc(N)c2cnn(C3CCN(Cc4ccc(S(=O)(=O)F)cc4)CC3)c2n1
Output: true (1)

Task: Quick check, Ratio >= 0.6? Cc1nc(N)c2ncn(C3CCN(C(=O)c4ccc(S(=O)(=O)F)cc4)CC3)c2n1
Output: true (1)

Task: Quick check, Ratio >= 0.6? Nc1ncnc2c1ncn2C1CCN(C(=O)c2ccc(S(=O)(=O)F)cc2)CC1
Output: true (1)

Task: Quick check, Ratio >= 0.6? Nc1cc(OCCNC(=O)c2ccc(S(=O)(=O)F)cc2)ccn1
Output: false (0)
